Data provenance is patent US8889670B2.

Target: human CB2R (Homo sapiens, UniProt P34972)
Construct: host or cells: CHO cells
Sequence (P34972 whole entry): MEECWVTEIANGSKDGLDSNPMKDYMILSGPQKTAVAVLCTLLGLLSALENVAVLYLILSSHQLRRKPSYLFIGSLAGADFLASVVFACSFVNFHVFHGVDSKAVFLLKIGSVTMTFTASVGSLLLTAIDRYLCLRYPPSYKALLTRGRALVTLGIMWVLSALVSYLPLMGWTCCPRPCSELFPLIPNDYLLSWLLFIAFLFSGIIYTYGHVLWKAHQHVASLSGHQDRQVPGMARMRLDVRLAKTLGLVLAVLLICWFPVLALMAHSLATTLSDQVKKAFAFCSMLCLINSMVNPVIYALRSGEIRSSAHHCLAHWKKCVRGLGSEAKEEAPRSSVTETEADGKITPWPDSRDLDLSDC
Assay: CB2R mediated modulation of cAMP synthesis (forskolin-stimulated cAMP, CHO cells expressing human CB2R)
Format: cell-based
Method: B. CB2R Mediated Modulation of cAMP Synthesis: Compounds of the invention were evaluated for their CB2 agonist or inverse agonistic activity in accordance with the following experimental method. CHO cells expressing human CB2R (Euroscreen) were plated at a density of 5000 cells per well in 384 well plates and incubated overnight at 37° C. […] Cells were lysed and the cAMP concentration was measured using DiscoverX-XS cAMP kit, following the manufacturer's protocol. […]
pEC50: −log10 of the molar value.
Observation Type: pEC50

>  <Compound>
CC(C)(C)c1cc(NC(=O)[C@@H]2CCCCCN2c2ccc(Cl)cc2)no1

>  <Value Observed>
9.40

$$$$
>  <Compound>
CC(C)(C)c1cc(NC(=O)[C@@H]2CCCCN2C(=O)c2cccc(Cl)c2)no1

>  <Value Observed>
7.36

$$$$
>  <Compound>
CC(C)(C)c1nsc(NC(=O)[C@@H]2CCCCN2CC2CCOCC2)n1

>  <Value Observed>
7.92

$$$$
>  <Compound>
O=C(Nc1nc2cc(Cl)ccc2[nH]1)[C@@H]1CCCCN1C(=O)N1CCS(=O)(=O)CC1

>  <Value Observed>
7.11

$$$$
>  <Compound>
CC(C)(C)c1cc(NC(=O)[C@@H]2CCCCN2S(=O)(=O)c2ccc(Cl)cc2)no1

>  <Value Observed>
7.68

$$$$
>  <Compound>
COc1ccc(S(=O)(=O)N2CCCC[C@H]2C(=O)Nc2cc(C(C)(C)C)on2)cc1

>  <Value Observed>
7.57

$$$$
>  <Compound>
CC(C)(C)c1cc(NC(=O)[C@@H]2CCCCN2C(=O)C2CCS(=O)(=O)C2)no1 (stereo partly drawn)

>  <Value Observed>
7.77

$$$$
>  <Compound>
CC(C)(C)c1cc(NC(=O)[C@@H]2CCCN(C(=O)C3CCC(F)(F)CC3)C2)no1

>  <Value Observed>
7.38

$$$$
>  <Compound>
CC(C)(C)c1cc(NC(=O)C2CCCN(C(=O)c3ccc(C(F)(F)F)cc3)C2)no1 (stereo not drawn)

>  <Value Observed>
7.80

$$$$

----------
Molecular target: human CB2R (Homo sapiens, UniProt P34972)
Construct: host or cells: CHO cells
Assay: CB2R mediated modulation of cAMP synthesis (forskolin-stimulated cAMP, CHO cells expressing human CB2R)
Format: cell-based
Settings: agonist EC50, inhibition of forskolin-stimulated cAMP synthesis; CHO cells expressing human CB2R; mean; read-out: CB2 CAMP @ EC50 nM (mean)
// NB: equality with 200 nM counts as false (0); only EC50 strictly below is true (1)

>  <Compound>
CCn1nc(NC(=O)[C@@H]2CCCCN2CC2CCOCC2)nc1-c1ccccc1

>  <Tgt>
human CB2R (Homo sapiens, UniProt P34972)

>  <Classification>
true (1)

$$$$
>  <Compound>
CCc1sc(NC(=O)[C@@H]2CCCCN2C(=O)N2CCS(=O)(=O)CC2)nc1-c1ccccc1

>  <Tgt>
human CB2R (Homo sapiens, UniProt P34972)

>  <Classification>
true (1)

$$$$
>  <Compound>
CC(C)c1nsc(NC(=O)[C@@H]2CCCCN2CC2CCOCC2)n1

>  <Tgt>
human CB2R (Homo sapiens, UniProt P34972)

>  <Classification>
false (0)

$$$$
>  <Compound>
CC(C)(C)c1cc(NC(=O)[C@@H]2CCCC(=O)N2c2ccc(Cl)cc2)on1

>  <Tgt>
human CB2R (Homo sapiens, UniProt P34972)

>  <Classification>
true (1)

$$$$
>  <Compound>
CCC(C)c1cc(NC(=O)[C@@H]2CCCCN2C(=O)N2CCS(=O)(=O)CC2)on1 (stereo partly drawn)

>  <Tgt>
human CB2R (Homo sapiens, UniProt P34972)

>  <Classification>
true (1)

$$$$
>  <Compound>
O=C(Nc1nc2ccc(Cl)cc2s1)[C@@H]1CCCCN1CC1CCOCC1

>  <Tgt>
human CB2R (Homo sapiens, UniProt P34972)

>  <Classification>
true (1)

$$$$
>  <Compound>
CCc1sc(NC(=O)[C@@H]2CCCCN2CC2CCOCC2)nc1-c1ccccc1

>  <Tgt>
human CB2R (Homo sapiens, UniProt P34972)

>  <Classification>
true (1)

$$$$
>  <Compound>
CC(C)(C)OC(=O)N1CCCC[C@H]1C(=O)Nc1cc(C(C)(C)C)on1

>  <Tgt>
human CB2R (Homo sapiens, UniProt P34972)

>  <Classification>
false (0)

$$$$
>  <Compound>
O=C(Nc1nc2cc(F)c(F)cc2s1)[C@@H]1CCCCN1C(=O)N1CCS(=O)(=O)CC1

>  <Tgt>
human CB2R (Homo sapiens, UniProt P34972)

>  <Classification>
false (0)

$$$$
>  <Compound>
CC(C)(C)c1cc(NC(=O)[C@@H]2CCCCN2C(=O)CN2CCOCC2)no1

>  <Tgt>
human CB2R (Homo sapiens, UniProt P34972)

>  <Classification>
true (1)

$$$$
>  <Compound>
CCn1nc(NC(=O)[C@@H]2CCCCN2C(=O)CC2CCS(=O)(=O)C2)nc1-c1ccccc1 (stereo partly drawn)

>  <Tgt>
human CB2R (Homo sapiens, UniProt P34972)

>  <Classification>
false (0)

$$$$
>  <Compound>
O=C(Nc1ccc(C(F)(F)F)c(F)c1)[C@@H]1CCCCN1CC1CCOCC1

>  <Tgt>
human CB2R (Homo sapiens, UniProt P34972)

>  <Classification>
true (1)

$$$$
>  <Compound>
O=C(Nc1nc(-c2ccc(F)cc2)ns1)[C@@H]1CCCCN1C(=O)N1CCS(=O)(=O)CC1

>  <Tgt>
human CB2R (Homo sapiens, UniProt P34972)

>  <Classification>
true (1)

$$$$
>  <Compound>
CC(C)(C)c1nnc(NC(=O)[C@@H]2CCCCN2C2CCC2)s1

>  <Tgt>
human CB2R (Homo sapiens, UniProt P34972)

>  <Classification>
true (1)

$$$$
>  <Compound>
O=C(Nc1nc2c(F)cccc2s1)[C@@H]1CCCCN1C(=O)N1CCS(=O)(=O)CC1

>  <Tgt>
human CB2R (Homo sapiens, UniProt P34972)

>  <Classification>
true (1)

$$$$
>  <Compound>
O=C(Nc1nc(-c2ccccc2)cs1)[C@@H]1CCCCN1CC1CCOCC1

>  <Tgt>
human CB2R (Homo sapiens, UniProt P34972)

>  <Classification>
true (1)

$$$$
>  <Compound>
O=C(Nc1nc(-c2ccccc2)ns1)[C@@H]1CCCCN1c1ncc(C(F)(F)F)cc1Cl

>  <Tgt>
human CB2R (Homo sapiens, UniProt P34972)

>  <Classification>
true (1)

$$$$
>  <Compound>
O=C(Nc1nc(C2CCCCC2)cs1)[C@@H]1CCCCN1CC1CCOCC1

>  <Tgt>
human CB2R (Homo sapiens, UniProt P34972)

>  <Classification>
true (1)

$$$$
>  <Compound>
CC(C)(C)c1cc(NC(=O)C2CCCN(C(=O)N3CCS(=O)(=O)CC3)C2)no1 (stereo not drawn)

>  <Tgt>
human CB2R (Homo sapiens, UniProt P34972)

>  <Classification>
false (0)

$$$$
>  <Compound>
O=C(Nc1nsc(-c2ccccc2)n1)[C@@H]1CCCCN1CC1CCOCC1

>  <Tgt>
human CB2R (Homo sapiens, UniProt P34972)

>  <Classification>
true (1)

$$$$
>  <Compound>
O=C(Nc1ccc(C(F)(F)F)cn1)[C@@H]1CCCCN1C(=O)C1CCC(F)(F)CC1

>  <Tgt>
human CB2R (Homo sapiens, UniProt P34972)

>  <Classification>
false (0)

$$$$
>  <Compound>
CC(C)(C)c1cc(NC(=O)[C@@H]2CCCCN2C(=O)CN2CCCC2)no1

>  <Tgt>
human CB2R (Homo sapiens, UniProt P34972)

>  <Classification>
false (0)

$$$$
>  <Compound>
CC(C)(C)c1cc(NC(=O)C2CCCCN2C(=O)c2ccc(C(F)(F)F)cc2)no1 (stereo not drawn)

>  <Tgt>
human CB2R (Homo sapiens, UniProt P34972)

>  <Classification>
false (0)

$$$$
>  <Compound>
CC(C)(C)c1nnc(NC(=O)[C@@H]2CCCCN2CC2CCOCC2)s1

>  <Tgt>
human CB2R (Homo sapiens, UniProt P34972)

>  <Classification>
true (1)

$$$$
>  <Compound>
O=C(Nc1nc(-c2ccc(F)c(F)c2)cs1)[C@@H]1CCCCN1C(=O)N1CCS(=O)(=O)CC1

>  <Tgt>
human CB2R (Homo sapiens, UniProt P34972)

>  <Classification>
true (1)

$$$$
>  <Compound>
CCn1nc(NC(=O)[C@@H]2CCCCN2C(=O)CN2CCC(F)(F)C2)nc1-c1ccccc1

>  <Tgt>
human CB2R (Homo sapiens, UniProt P34972)

>  <Classification>
false (0)

$$$$
>  <Compound>
CCn1nc(NC(=O)[C@@H]2CCCCN2C(=O)N2CCS(=O)(=O)CC2)nc1-c1ccccc1

>  <Tgt>
human CB2R (Homo sapiens, UniProt P34972)

>  <Classification>
true (1)

$$$$
>  <Compound>
COCC(C)(C)c1cc(NC(=O)[C@@H]2CCCCN2C(=O)N2CCS(=O)(=O)CC2)no1

>  <Tgt>
human CB2R (Homo sapiens, UniProt P34972)

>  <Classification>
true (1)

$$$$
>  <Compound>
CC(C)(C)OC(=O)N1CCCC[C@H]1C(=O)Nc1nnc(C(C)(C)C)s1

>  <Tgt>
human CB2R (Homo sapiens, UniProt P34972)

>  <Classification>
false (0)

$$$$
>  <Compound>
CC(C)(C)c1nnc(NC(=O)[C@@H]2CCCCN2C2CC2)s1

>  <Tgt>
human CB2R (Homo sapiens, UniProt P34972)

>  <Classification>
false (0)

$$$$
>  <Compound>
O=C(Nc1cc(C(F)(F)F)ccn1)[C@@H]1CCCCN1CC1CCOCC1

>  <Tgt>
human CB2R (Homo sapiens, UniProt P34972)

>  <Classification>
false (0)

$$$$
>  <Compound>
CC(C)(C)c1nnc(NC(=O)[C@@H]2CCCCN2C(=O)N2CCS(=O)(=O)CC2)s1

>  <Tgt>
human CB2R (Homo sapiens, UniProt P34972)

>  <Classification>
true (1)

$$$$
>  <Compound>
COc1ccc(-c2nsc(NC(=O)[C@@H]3CCCCN3C(=O)N3CCS(=O)(=O)CC3)n2)cc1

>  <Tgt>
human CB2R (Homo sapiens, UniProt P34972)

>  <Classification>
true (1)

$$$$
>  <Compound>
O=C(Nc1nc(C2CCCCC2)cs1)[C@@H]1CCCCN1C1CCOCC1

>  <Tgt>
human CB2R (Homo sapiens, UniProt P34972)

>  <Classification>
true (1)

$$$$
>  <Compound>
O=C(Nc1nc(-c2ccccc2)ns1)[C@@H]1CCCCN1CC1CCOCC1

>  <Tgt>
human CB2R (Homo sapiens, UniProt P34972)

>  <Classification>
true (1)

$$$$
>  <Compound>
O=C(NCCSCc1c(F)cccc1Cl)[C@@H]1CCCCN1C(=O)N1CCS(=O)(=O)CC1

>  <Tgt>
human CB2R (Homo sapiens, UniProt P34972)

>  <Classification>
true (1)

$$$$
>  <Compound>
CCc1sc(NC(=O)[C@@H]2CCCCN2C(=O)OC(C)(C)C)nc1-c1ccccc1

>  <Tgt>
human CB2R (Homo sapiens, UniProt P34972)

>  <Classification>
true (1)

$$$$
